Tested on: SK-MEL-5 melanoma
Assay method text: NCI tumour cell line growth inhibition, 48 h

[
  {
    "Compound": "O=C1c2c(c3c4ccccc4n(CCCCCCBr)c3c3[nH]c4ccccc4c23)C(=O)N1O",
    "Tested system": "SK-MEL-5 melanoma",
    "TGI": "2.8 µM"
  },
  {
    "Compound": "Cc1nc2c(sc(=S)n2-c2ccccc2)c2nc3ncccc3n12",
    "Tested system": "SK-MEL-5 melanoma",
    "TGI": "> 100 µM"
  },
  {
    "Compound": "O=C(NCCOCCOCCNc1cccc2c1C(=O)N(C1CCCNC1=O)C2=O)c1cc2c(o1)C(=O)c1ccccc1C2=O (stereo unspecified)",
    "Tested system": "SK-MEL-5 melanoma",
    "TGI": "1.99 µM"
  },
  {
    "Compound": "Cc1nnc(Nc2ccccc2)o1",
    "Tested system": "SK-MEL-5 melanoma",
    "TGI": "> 100 µM"
  },
  {
    "Compound": "Cn1cc2ccccc2c1-c1nc(N)nc(F)n1",
    "Tested system": "SK-MEL-5 melanoma",
    "TGI": "> 100 µM"
  },
  {
    "Compound": "CN(C)CCC(=O)N1C/C(=C/c2ccccc2)C(=O)/C(=C\\c2ccccc2)C1",
    "Tested system": "SK-MEL-5 melanoma",
    "TGI": "3.9 µM"
  },
  {
    "Compound": "S=C(N/N=C\\C=N/NC(=S)N1CCCCC1)N1CCCCC1",
    "Tested system": "SK-MEL-5 melanoma",
    "TGI": "> 32.4 µM"
  },
  {
    "Compound": "N#C/C(=C/c1ccsc1)C(=O)c1ccccc1",
    "Tested system": "SK-MEL-5 melanoma",
    "TGI": "> 100 µM"
  },
  {
    "Compound": "Cc1ccc(-c2c3c([nH]c(=O)c2C#N)-c2cc(F)ccc2OC3)cc1",
    "Tested system": "SK-MEL-5 melanoma",
    "TGI": "> 100 µM"
  },
  {
    "Compound": "COc1cc(/C=C2/C(=O)N(C(=O)c3ccccc3O)N=C2C)cc(OC)c1OC",
    "Tested system": "SK-MEL-5 melanoma",
    "TGI": "33.6 µM"
  },
  {
    "Compound": "CN(C)CCCOC(=O)C(c1ccccc1)C1(O)CCSCC1 (stereo unspecified)",
    "Tested system": "SK-MEL-5 melanoma",
    "TGI": "> 100 µM"
  },
  {
    "Compound": "COc1cnc2cc(C(=O)O)c3c([N+](=O)[O-])cccc3c2c1",
    "Tested system": "SK-MEL-5 melanoma",
    "TGI": "> 100 µM"
  },
  {
    "Compound": "CCCCC(=O)OCC1OC(n2cnc3c(=S)nc[nH]c32)C(OC(=O)CCCC)C1OC(=O)CCCC (stereo unspecified)",
    "Tested system": "SK-MEL-5 melanoma",
    "TGI": "> 46.5 µM"
  },
  {
    "Compound": "CC1(O)CC(C(F)(F)F)(C(F)(F)F)OC1=O (stereo unspecified)",
    "Tested system": "SK-MEL-5 melanoma",
    "TGI": "> 10 µM"
  },
  {
    "Compound": "COc1ccc(-n2c(=O)c3[nH]cnc3n(-c3ccc(OC)cc3)c2=S)cc1",
    "Tested system": "SK-MEL-5 melanoma",
    "TGI": "> 100 µM"
  },
  {
    "Compound": "CCN(CC)c1c(C(=O)/C=C/c2ccccc2)c(-c2ccccc2)nn(C)c1=O",
    "Tested system": "SK-MEL-5 melanoma",
    "TGI": "> 100 µM"
  },
  {
    "Compound": "Nc1nc2cc3nc(N)c(N)nc3cc2nc1N",
    "Tested system": "SK-MEL-5 melanoma",
    "TGI": "> 100 µM"
  },
  {
    "Compound": "CN1CCN(Cc2ccc(NC(=O)c3cncc(C#Cc4cnc(N)c5ccc(C#N)cc45)c3)cc2C(F)(F)F)CC1",
    "Tested system": "SK-MEL-5 melanoma",
    "TGI": "0.696 µM"
  },
  {
    "Compound": "CCCCN(CCCC)C(=O)C(=O)C(C#N)c1ccc(C)cc1 (stereo unspecified)",
    "Tested system": "SK-MEL-5 melanoma",
    "TGI": "> 100 µM"
  },
  {
    "Compound": "CCOC(=O)CNC(=O)C(CSCc1ccc(Br)cc1)NC(=O)CCC(N)C(=O)OCC (stereo unspecified)",
    "Tested system": "SK-MEL-5 melanoma",
    "TGI": "> 50 µM"
  },
  {
    "Compound": "O=C(c1ccco1)c1nc2ccc(C(F)(F)F)cc2[n+]([O-])c1C(F)(F)F",
    "Tested system": "SK-MEL-5 melanoma",
    "TGI": "> 100 µM"
  },
  {
    "Compound": "COc1ccc(C2CC(c3c(O)ccc4ccccc34)=NN2c2ccc([N+](=O)[O-])cc2[N+](=O)[O-])cc1OC (stereo unspecified)",
    "Tested system": "SK-MEL-5 melanoma",
    "TGI": "30.2 µM"
  },
  {
    "Compound": "COc1ccc(/C(=C2\\O[C@@H]([C@H]3COC(C)(C)O3)[C@H]3OC(C)(C)O[C@@H]23)c2cc(OC)c(OC)c(OC)c2)cc1O",
    "Tested system": "SK-MEL-5 melanoma",
    "TGI": "11.2 µM"
  },
  {
    "Compound": "COc1ccc2ccc3c(c2c1)CN1CCc2cc(OC)c(OC)cc2C1C3 (stereo unspecified)",
    "Tested system": "SK-MEL-5 melanoma",
    "TGI": "> 100 µM"
  },
  {
    "Compound": "CCOC(=O)c1csc(NC(=O)CCN(CC)CC)n1",
    "Tested system": "SK-MEL-5 melanoma",
    "TGI": "> 100 µM"
  },
  {
    "Compound": "O=C(CCCCCCCCC(=O)NN1C(=O)/C(=C\\c2ccc(O)c(O)c2)SC1c1ccc(Cl)cc1)NN1C(=O)/C(=C\\c2ccc(O)c(O)c2)SC1c1ccc(Cl)cc1 (stereo unspecified)",
    "Tested system": "SK-MEL-5 melanoma",
    "TGI": "> 100 µM"
  },
  {
    "Compound": "COc1cc(/C=C/c2cc(/C=C/c3ccc(O)c(OC)c3)n(-c3ccccc3)n2)ccc1O",
    "Tested system": "SK-MEL-5 melanoma",
    "TGI": "1.36 µM"
  },
  {
    "Compound": "CCN1CC2=C(NC(=S)NC2c2ccc(Cl)cc2)/C(=C/c2ccc(Cl)cc2)C1 (stereo unspecified)",
    "Tested system": "SK-MEL-5 melanoma",
    "TGI": "> 100 µM"
  },
  {
    "Compound": "COc1cccc2c(N)c3cccc(C(=O)NCCN(C)C)c3nc12",
    "Tested system": "SK-MEL-5 melanoma",
    "TGI": "2.08 µM"
  },
  {
    "Compound": "Cc1ccc(-c2c(C#N)c(-c3ccccc3)n(NS(=O)(=O)c3ccccc3)c(=O)c2C#N)cc1",
    "Tested system": "SK-MEL-5 melanoma",
    "TGI": "> 100 µM"
  },
  {
    "Compound": "COC(=O)C(=O)C(C(=O)C=C(C)C)C(=O)C(=O)Nc1cc(C(F)(F)F)ccc1Cl (stereo unspecified)",
    "Tested system": "SK-MEL-5 melanoma",
    "TGI": "> 100 µM"
  },
  {
    "Compound": "CCNCCNc1cc(-c2ccc(C(=O)OC)cc2)c(C#N)c2nc3ccccc3n12",
    "Tested system": "SK-MEL-5 melanoma",
    "TGI": "3.11 µM"
  },
  {
    "Compound": "C=C(C(=O)C(=O)Oc1ccc(Cl)cc1)C(=O)c1ccc(C)cc1",
    "Tested system": "SK-MEL-5 melanoma",
    "TGI": "> 100 µM"
  },
  {
    "Compound": "COC1C(CN[N+](=O)CC2OC3OC(C)(C)OC3C2OC)OC2OC(C)(C)OC21 (stereo unspecified)",
    "Tested system": "SK-MEL-5 melanoma",
    "TGI": "> 100 µM"
  },
  {
    "Compound": "CN(C(=O)C12C3C4C1C1C2C3C41C(=O)C(C)(C)C)C(C)(C)C (stereo unspecified)",
    "Tested system": "SK-MEL-5 melanoma",
    "TGI": "> 100 µM"
  },
  {
    "Compound": "C[C@]12CC[C@@H]3c4ccc(O)cc4CC[C@H]3[C@@H]1C/C(=C\\c1ccncc1)C2=O",
    "Tested system": "SK-MEL-5 melanoma",
    "TGI": "27.9 µM"
  },
  {
    "Compound": "Cc1c(-c2nc3ccccc3[nH]2)c(=O)n(-c2ccccc2)n1C",
    "Tested system": "SK-MEL-5 melanoma",
    "TGI": "> 100 µM"
  },
  {
    "Compound": "OCC1CCCCCCCCCCC12SCCCS2 (stereo unspecified)",
    "Tested system": "SK-MEL-5 melanoma",
    "TGI": "> 100 µM"
  },
  {
    "Compound": "CC1(C)OCC(COC(=O)C=[N+]=[N-])O1 (stereo unspecified)",
    "Tested system": "SK-MEL-5 melanoma",
    "TGI": "> 100 µM"
  },
  {
    "Compound": "CCOP(=O)(OCC)/C(C#N)=C/c1cnc(-c2ccccc2)[nH]1",
    "Tested system": "SK-MEL-5 melanoma",
    "TGI": "> 100 µM"
  },
  {
    "Compound": "CC1=C(CCCNS(C)(=O)=O)C2=C(C)C3(CC3)[C@@](C)(O)C(=O)C2=C1",
    "Tested system": "SK-MEL-5 melanoma",
    "TGI": "1.98 µM"
  }
]

The origin of these recorded values is PubChem BioAssay (NCI).
